Kindly state IC50 for each of the entries shown.
Target: Neuropeptide S receptor (Homo sapiens)
Sequence (Q6W5P4 whole entry): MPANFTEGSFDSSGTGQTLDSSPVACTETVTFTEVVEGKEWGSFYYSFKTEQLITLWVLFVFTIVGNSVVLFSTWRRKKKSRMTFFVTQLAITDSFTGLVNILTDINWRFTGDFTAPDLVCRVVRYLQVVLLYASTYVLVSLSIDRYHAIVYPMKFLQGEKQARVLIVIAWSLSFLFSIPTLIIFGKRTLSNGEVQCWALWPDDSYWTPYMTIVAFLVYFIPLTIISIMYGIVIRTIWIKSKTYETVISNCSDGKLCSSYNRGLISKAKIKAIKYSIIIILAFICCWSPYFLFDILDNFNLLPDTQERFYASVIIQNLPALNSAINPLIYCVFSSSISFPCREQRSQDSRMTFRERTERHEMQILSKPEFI
Test: Antagonist activity at neuropeptide S receptor (unknown origin) expressed in CHO cells assessed as cAMP level after 30 mins by […] assay
Assay type: functional, cell-based
Settings: read-out: IC50
Numbers only, in nM.

{"compound": "Cc1c(P(=S)(c2ccccc2)c2ccccc2)n2ccccc2[n+]1C/C=C/c1ccc(F)cc1", "uom": "nM", "result-value": 71}

Kindly give each listed record's IC50.
1. Cc1c(P(=S)(c2ccccc2)c2ccccc2)n2ccccc2[n+]1C/C=C/c1ccc(Br)cc1
2. Cc1c(P(=S)(c2ccccc2)c2ccccc2)n2ccccc2[n+]1C/C=C/c1ccc(C(F)(F)F)cc1
3. Cc1c(P(=S)(c2ccccc2)c2ccccc2)n2ccccc2[n+]1C/C=C/c1ccccc1.[Br-]
4. Cc1c(P(=S)(c2ccccc2)c2ccccc2)[n+]2ccccc2n1C.[I-]

[170, 400, 45, 1700]

Kindly give each listed record's IC50.
1. Cc1ccc(/C=C/C[n+]2c(C)c(P(=S)(c3ccccc3)c3ccccc3)n3ccccc32)cc1
2. Cc1c(P(=S)(c2ccccc2)c2ccccc2)n2ccccc2[n+]1CCc1ccccc1
3. Cc1c(P(=S)(c2ccccc2)c2ccccc2)n2ccccc2[n+]1C/C=C/c1ccccc1Cl
4. Cc1c(P(=S)(c2ccccc2)c2ccccc2)n2ccccc2[n+]1C/C=C/c1ccc(Cl)cc1

[330, 2100, 94, 120]

Hey, just so you know, these numbers are from ChEMBL document CHEMBL3085664.
